target: glucosylceramide synthase (Homo sapiens); construct: made in house; host or cells: Expi293F cells (transient expression, pcDNA3.3-TOPO vector); microsome fraction used as enzyme source; assay: Glucosylceramide synthase (GCS) enzyme assay, microsome fraction, C8 glucosylceramide quantified by Rapidfire MS/MS; type: biochemical; details: test compound 10 μM; 1.7 μM UDP-glucose, 3 μM C8 ceramide; room temperature 60 min; read-out: GCS enzyme inhibitory rate at 10 μM (%) (% of control)
Sequence (Q16739 whole entry): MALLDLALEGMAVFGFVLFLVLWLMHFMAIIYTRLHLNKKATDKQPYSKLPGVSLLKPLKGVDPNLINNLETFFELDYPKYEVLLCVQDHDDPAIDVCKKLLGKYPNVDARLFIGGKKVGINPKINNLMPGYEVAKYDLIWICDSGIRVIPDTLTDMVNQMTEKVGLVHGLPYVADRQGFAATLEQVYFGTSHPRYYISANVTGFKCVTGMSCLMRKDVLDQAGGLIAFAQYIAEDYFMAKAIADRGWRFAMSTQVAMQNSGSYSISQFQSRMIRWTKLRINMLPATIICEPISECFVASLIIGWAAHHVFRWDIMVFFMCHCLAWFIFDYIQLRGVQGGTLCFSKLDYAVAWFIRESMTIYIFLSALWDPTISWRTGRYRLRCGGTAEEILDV
measurementName: inhibition at 10 µM (%)
// return numeric value only (unit: %, not printed)

>>> readoutnumber("COc1ccccc1-c1nccc2c1CN(c1ccc(OCC(F)(F)F)cc1)C2=O")
99
>>> readoutnumber("COc1cc(F)ccc1-c1nccc2c1CN(c1ccc(F)cc1)C2=O")
70
>>> readoutnumber("CC(=O)c1ccc(N2Cc3c(ccnc3-c3c(F)cccc3OCC(F)(F)F)C2=O)cc1")
97

Recorded result, COC(=O)c1ccc(N2CC3=C(OC[C@H](C)N=C3c3ccccc3OCC(F)(F)F)C2=O)cc1 , inhibition at 10 µM: 91
